Listed below: AD38 Viability Normalized Result (cmpd/DMSO %) at 10 μM values for each entry.
Tested on: AD38 cells
Assay: Viability of AD38 cells (Promega CellTiter-Glo)
Format: cell-based
Conditions: 10 μM compound, 6 days, DMSO controls = 100%
The reply should contain only the number, in %.

{"compound": "CC1c2ccc(C(=O)NCc3cccnc3)cc2NC(=O)c2ccccc21 (stereo not shown)", "observed": 99}
{"compound": "O=C(NCc1cccnc1)c1ccc2c(c1)NC(=O)c1ccccc1N2", "observed": 103}
{"compound": "O=C(NCc1cnc(C(F)(F)F)nc1)c1ccc2c(c1)NC(=O)c1ccccc1S2(=O)=O", "observed": 101}
{"compound": "O=C(NCc1cnc(-c2ccc(O)cc2F)nc1)c1ccc2c(c1)NC(=O)c1ccccc1S2(=O)=O", "observed": 106}
{"compound": "N#Cc1ccc(-c2ccc(CNC(=O)c3ccc4c(c3)NC(=O)c3ccccc3S4(=O)=O)cn2)cc1", "observed": 86}

Form: compound = O=C(NCc1ccc(-c2ccc3[nH]cnc3c2)nc1)c1ccc2c(c1)NC(=O)c1ccccc1S2(=O)=O ; AD38 Viability Normalized Result (cmpd/DMSO %) at 10 μM = 102

Entry O=C(NCc1ccc(-c2ccccc2CO)nc1)c1ccc2c(c1)NC(=O)c1ccccc1S2(=O)=O , AD38 Viability Normalized Result (cmpd/DMSO %) at 10 μM reported as 103

get_value(item= O=C(NCCc1ccccn1)c1ccc2c(c1)NC(=O)c1ccccc1N2 , readout=AD38 Viability Normalized Result (cmpd/DMSO %) at 10 μM) returns 103

In plain terms, O=C(NCc1cccnc1)c1ccc2c(c1)NC(=O)c1ccc(Cl)cc1S2 has a documented AD38 Viability Normalized Result (cmpd/DMSO %) at 10 μM of 24

// recorded AD38 Viability Normalized Result (cmpd/DMSO %) at 10 μM for O=C(NCc1cnc(-c2ccc3[nH]ccc3c2)nc1)c1ccc2c(c1)NC(=O)c1ccccc1S2(=O)=O : 108

Looking up O=C(NCc1cnc(-c2ccc(O)c(F)c2)nc1)c1ccc2c(c1)NC(=O)c1ccccc1S2(=O)=O , I see its AD38 Viability Normalized Result (cmpd/DMSO %) at 10 μM listed as 111

Please fill in: AD38 Viability Normalized Result (cmpd/DMSO %) at 10 μM reported for O=C(NCc1cnc(-c2ccc(O)cc2)nc1)c1ccc2c(c1)NC(=O)c1ccccc1S2(=O)=O = 111

Record O=C(NCc1ccc(-c2ccc(O)c(F)c2)nc1)c1ccc2c(c1)NC(=O)c1ccccc1S2(=O)=O , field AD38 Viability Normalized Result (cmpd/DMSO %) at 10 μM: 105

Given item NC(=O)c1ccc(-c2ncc(CNC(=O)c3ccc4c(c3)NC(=O)c3ccccc3S4(=O)=O)cn2)cc1 , the value recorded as its AD38 Viability Normalized Result (cmpd/DMSO %) at 10 μM is 104

Just so you know, measured AD38 Viability Normalized Result (cmpd/DMSO %) at 10 μM for O=C(NCc1ccc(C(F)(F)F)nc1)c1ccc2c(c1)NC(=O)c1ccccc1S2(=O)=O came out at 108

Notebook: O=C(NCc1ccc(Cc2ccc(O)cc2)nc1)c1ccc2c(c1)NC(=O)c1ccccc1S2(=O)=O , AD38 Viability Normalized Result (cmpd/DMSO %) at 10 μM read as 90

---

System: AD38 cells
Experiment: Viability of AD38 cells (Promega CellTiter-Glo)
Type: cell-based
Conditions: 10 μM compound, 6 days, DMSO controls = 100%
quantity_name: AD38 Viability Normalized Result (cmpd/DMSO %) at 10 μM
Field format: number, assumed %, no unit text.

{"compound": "COc1ccc(Cc2ccc(CNC(=O)c3ccc4c(c3)NC(=O)c3ccccc3O4)cn2)cc1", "target_of_assay": "AD38 cells", "observed": 105}
{"compound": "O=C(NCc1cnc(-c2ccc3[nH]ncc3c2)nc1)c1ccc2c(c1)NC(=O)c1ccccc1S2(=O)=O", "target_of_assay": "AD38 cells", "observed": 103}
{"compound": "O=C(NCc1ccc(-c2ccc(O)c(Cl)c2)nc1)c1ccc2c(c1)NC(=O)c1ccccc1S2(=O)=O", "target_of_assay": "AD38 cells", "observed": 103}

The compound listed as O=C(NCc1cnc(-c2ccc3[nH]cnc3c2)nc1)c1ccc2c(c1)NC(=O)c1ccccc1S2(=O)=O shows AD38 Viability Normalized Result (cmpd/DMSO %) at 10 μM equal to 100

The compound Nc1ncc(-c2ccc(CNC(=O)c3ccc4c(c3)NC(=O)c3ccccc3S4(=O)=O)cn2)cn1 showed AD38 Viability Normalized Result (cmpd/DMSO %) at 10 μM equal to 108

Recorded result, O=C(NCc1ccc(-c2ccc3[nH]ccc3c2)nc1)c1ccc2c(c1)NC(=O)c1ccccc1S2(=O)=O , AD38 Viability Normalized Result (cmpd/DMSO %) at 10 μM: 87

The value of AD38 Viability Normalized Result (cmpd/DMSO %) at 10 μM measured for the compound O=C(NCc1nnc(-c2ccc(O)cc2)s1)c1ccc2c(c1)NC(=O)c1ccccc1S2(=O)=O turned out to be 96

Recorded AD38 Viability Normalized Result (cmpd/DMSO %) at 10 μM (compound CC1c2ccc(C(=O)NCc3cncnc3)cc2NC(=O)c2ccccc21 (stereo not shown) ): 95

// sample O=C(NCc1ccc(-c2ccc(O)cc2Cl)nc1)c1ccc2c(c1)NC(=O)c1ccccc1S2(=O)=O , its AD38 Viability Normalized Result (cmpd/DMSO %) at 10 μM was 105

Reported AD38 Viability Normalized Result (cmpd/DMSO %) at 10 μM of Nc1ncc(-c2ncc(CNC(=O)c3ccc4c(c3)NC(=O)c3ccccc3S4(=O)=O)cn2)cn1 : 105

The reported AD38 Viability Normalized Result (cmpd/DMSO %) at 10 μM of the compound Cc1cc2c(cc1C(=O)NCc1cccnc1)NC(=O)c1ccccc1S2 was 97

Form: compound = Cc1cc2c(cc1C(=O)NCc1cncnc1)NC(=O)c1ccccc1S2 ; AD38 Viability Normalized Result (cmpd/DMSO %) at 10 μM = 96

Just so you know, measured AD38 Viability Normalized Result (cmpd/DMSO %) at 10 μM for N#Cc1ccc(-c2ncc(CNC(=O)c3ccc4c(c3)NC(=O)c3ccccc3S4(=O)=O)cn2)cc1 came out at 96

Please fill in: AD38 Viability Normalized Result (cmpd/DMSO %) at 10 μM reported for O=C(NCc1cnc(-c2ccc(O)c(Cl)c2)nc1)c1ccc2c(c1)NC(=O)c1ccccc1S2(=O)=O = 104

# AD38 Viability Normalized Result (cmpd/DMSO %) at 10 μM of O=C(NCc1ccc(-c2cc(F)c(O)c(F)c2)nc1)c1ccc2c(c1)NC(=O)c1ccccc1S2(=O)=O = 100

O=C(NCc1cncnc1)c1ccc2c(c1)NC(=O)c1cc(Cl)ccc1S2 yielded AD38 Viability Normalized Result (cmpd/DMSO %) at 10 μM of 0
